B1: ZNF449 (parent)
chain: QLTGHQRIHSGEEPHKCPECGKRF

variants of: B1; assay: protein stability index of a GFP-peptide fusion (GPS, HEK-293T) (PSI 1-6); higher = more stable; conditions: c terminus: a fixed tail appended;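 further: lentivirally expressed fusions sorted by FACS into six bins by GFP to DsRed ratio, PSI derived from sequencing read proportions per bin multiplied by bin number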
metric.name: protein stability index
// response body must contain only the number

Here are 5 variants together with their reported answers.
>>> experimental_result("P14Q")
4.75
>>> experimental_result("G21D")
4.36
>>> experimental_result("I8T")
4.42
>>> experimental_result("G21F")
4.19
>>> experimental_result("L2Q")
5.16

Ask: State the recorded protein stability index for this entry: E13H
Reply: 3.62

Ask: State the recorded protein stability index for this entry: C17H
Reply: 4.17

Ask: State the recorded protein stability index for this entry: E19W
Reply: 3.61

Ask: State the recorded protein stability index for this entry: K16I
Reply: 4.48
